The measurements presented in this section are drawn from patent US12187723B2.

- TARGET_DESC: human TLR8 (Homo sapiens)
- Sequence (Q9NR97 27-1041): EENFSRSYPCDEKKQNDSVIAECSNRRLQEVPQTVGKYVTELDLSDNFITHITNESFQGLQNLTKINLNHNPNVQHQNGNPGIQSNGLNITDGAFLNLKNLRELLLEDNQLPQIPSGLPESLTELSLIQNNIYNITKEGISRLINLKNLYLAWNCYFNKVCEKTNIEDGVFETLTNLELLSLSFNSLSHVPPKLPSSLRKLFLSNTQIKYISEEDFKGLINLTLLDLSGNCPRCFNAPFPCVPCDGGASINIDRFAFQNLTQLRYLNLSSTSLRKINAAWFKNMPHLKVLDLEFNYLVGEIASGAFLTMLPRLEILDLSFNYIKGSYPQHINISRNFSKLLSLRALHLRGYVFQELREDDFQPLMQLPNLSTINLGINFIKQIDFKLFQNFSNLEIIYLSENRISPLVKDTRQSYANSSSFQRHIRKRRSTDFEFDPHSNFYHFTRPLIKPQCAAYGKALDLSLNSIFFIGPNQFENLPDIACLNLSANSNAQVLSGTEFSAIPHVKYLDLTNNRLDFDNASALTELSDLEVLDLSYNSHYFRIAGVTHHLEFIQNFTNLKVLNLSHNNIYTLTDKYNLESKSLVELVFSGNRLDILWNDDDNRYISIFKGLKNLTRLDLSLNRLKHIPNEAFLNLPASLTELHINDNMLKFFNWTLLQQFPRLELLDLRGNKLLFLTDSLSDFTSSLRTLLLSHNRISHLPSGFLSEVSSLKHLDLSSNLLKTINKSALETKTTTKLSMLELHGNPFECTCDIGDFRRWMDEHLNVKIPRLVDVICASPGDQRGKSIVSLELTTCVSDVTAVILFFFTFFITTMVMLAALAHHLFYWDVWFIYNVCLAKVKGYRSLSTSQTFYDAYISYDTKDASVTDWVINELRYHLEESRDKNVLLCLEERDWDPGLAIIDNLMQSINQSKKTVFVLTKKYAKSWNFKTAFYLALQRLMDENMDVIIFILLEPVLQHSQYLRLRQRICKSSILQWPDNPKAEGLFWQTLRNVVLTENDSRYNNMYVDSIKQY
- ASSAY_TEXT: TLR8 inhibition reporter assay (HEK-Blue SEAP)
- CONDITIONS_USED: HEK-Blue cells overexpressing human TLR8, R848 15.9 μM, 22 hour incubation
MEASURED_ATTRIBUTE: IC50 (µM)

Answered examples (4):
CCCN1CCC(n2c(=O)[nH]c3cc(-c4cc(C)c5ncnn5c4)c(C)cc32)CC1 [Example 7] | 0.0486
COc1cc(-c2cc3[nH]c(=O)n([C@H]4CC[C@@H](NC5COC5)CC4)c3cc2C)cn2ncnc12 [Example 59] | 0.0188
CCc1cc2c(cc1-c1cc(OC)c3ncnn3c1)[nH]c(=O)n2[C@@H]1CCCN(C2CCOC2)C1 (stereo partly shown) [Example 213] | 0.00462
CCc1cc2c(cc1-c1cc(OC)c3ncnn3c1)[nH]c(=O)n2[C@@H]1CCCN(C2CCCOC2)C1 (stereo partly shown) [Example 215] | 0.0137

1. Cc1c(-c2cc3[nH]c(=O)n(C4CCC(N5CCCC(F)C5)CC4)c3cc2C(C)C)cn2ncnc2c1C (stereo not shown) [Example 273]
2. CCc1cc2c(cc1-c1cc(OC)c3ncnn3c1)[nH]c(=O)n2[C@@H]1CCCN(CCOC)C1 [Example 227]
3. Cc1cc2c(cc1-c1cc(C)c3ncnn3c1)[nH]c(=O)n2[C@@H]1CCCN(C2COC2)C1 [Example 18]
Query: Sort these compounds on IC50 so the largest reading comes first. Use the labels to give the requested order.
Response: 3, 2, 1
